Here, each record is paired with measured growth inhibition data.
- METHOD: NCI Yeast Anticancer Drug Screen. Data for the cln2 rad14 strain (AID 165);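 also: 0% = growth equal to vehicle treated cultures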
- APPLIED CONDITIONS: S. cerevisiae cln2 rad14 strain, at 50.0 µM, hits give high values
Compounds without any hit were thinned out: in the full panel of roughly 79,000, 15% have a hit.
Expressed in %, but write only the number.

# annotated cases, reported growth inhibition shown
ENTRY SMILES: O=C1NC(=O)C(c2ccc(Br)c3ccccc23)=C1O
NUMBER: -44.5
--
ENTRY SMILES: O=C(C(=O)c1ccco1)c1ccco1
NUMBER: -24.6
--
ENTRY SMILES: O=C(Nc1ccccc1)c1cc([N+](=O)[O-])cc([N+](=O)[O-])c1
NUMBER: -24.6
--
ENTRY SMILES: Cc1nc2ccc(C(F)(F)F)cc2nc1Nc1ccc(Cl)c(Cl)c1
NUMBER: 15.2
--
ENTRY SMILES: Cc1ccc(NCCN(C)C)c2c(=O)c3cccc(O)c3sc12
NUMBER: 26.8

Okay, next one:
Supply measured growth inhibition of CSC(=S)/C(=C/Nc1ccccn1)c1ccccc1 in your reply.
15.2

###

- METHOD: NCI Yeast Anticancer Drug Screen. Data for the mlh1 rad18 strain (AID 175)
- APPLIED CONDITIONS: S. cerevisiae mlh1 rad18 strain growth inhibition; at 50.0 µM; hits give high values
About 79,000 compounds went through this panel and 15% of them were active in at least one assay; those are over-represented in the sample as a whole.
READOUT LABEL: growth inhibition (%)
# value in %; strip the unit string

ENTRY SMILES: O=C(O)/C=C\C(=O)Nc1ccccn1
NUMBER: -21.4

Please look at this compound and report its growth inhibition: CCOC(=O)Nc1ccc(F)c(C(F)(F)F)c1
-4.25

Give me measured growth inhibition, please, for this compound: CC(C)=NNC(=O)c1n[nH]c(C)c1N=NN(C)C
20.5

###

- METHOD: NCI Yeast Anticancer Drug Screen. Data for the mlh1 rad18 strain (AID 175)
- APPLIED CONDITIONS: S. cerevisiae mlh1 rad18 strain growth inhibition; at 50.0 µM; hits give high values
This is part of a sample that, as a whole, favours compounds with a hit. Of some 79,000 tested, about 15% had one in any assay.
READOUT LABEL: growth inhibition (%)
Only the number, expressed in %, is required.

Before answering, review these 3 worked examples.
MOLECULE: c1ccc2c(c1)SCCCSCCSCCCS2
UNIT ABBREV: %
growth inhibition: 2.6

MOLECULE: O=C(O)c1scc2c1CCCC2
UNIT ABBREV: %
growth inhibition: -39.6

MOLECULE: O=C1NC2Cc3ccccc3C(C2)O1 (stereo unspecified)
UNIT ABBREV: %
growth inhibition: 11.8

Give a short answer stating reported growth inhibition for CC(=O)COc1ccccc1-c1ccccc1 .
-14.7

Report growth inhibition for O=NC1C(Cl)C2CC1C1C(Cl)C(Cl)CC21 (stereo unspecified)
33.1

Return reported growth inhibition. Input molecule: CN1CCC(c2ccccc2)(C(O)(c2ccccc2)c2ccccc2)CC1
12.7

Identify measured growth inhibition associated with O=C(O)c1ccc(/C=N/NC(=O)C(O)(c2ccccc2)c2ccccc2)cc1
-9.65

Identify measured growth inhibition associated with CCOc1ccc(NC(=O)c2ccccc2O)cc1
43.3

Report measured growth inhibition; entry is CCOC(=O)CSc1[nH]c(NC(=S)Nc2ccccc2)c(C(N)=O)c1C(N)=O
-4.45

For the molecule Nc1c(Cl)cc(C(=O)NC2CC2)cc1Cl , give its reported growth inhibition.
-24.9

Using the record for O=C(NC(=O)c1c(F)cccc1F)Nc1ccc(Cl)nc1 , state its measured growth inhibition.
10.1
